ED50: recorded values
system: carrageenan edema; assay: inhibition test of carrageenan edema employing a foot-pad edema method; format: in vivo, male Wister rats; settings: Rattus norvegicus; male Wister rats, foot-pad edema; read-out: ED50 for inhibition for carrageenan edema

# compound, readoutRelation, ED50 (mg/kg)
measured = [
    ("CC=CC=CC(=O)OCCOC(=O)Cc1c(C)n(C(=O)c2ccc(Cl)cc2)c2ccc(OC)cc12", "=", 13),
    ("CC=CC=CC(=O)OCOC(=O)Cc1ccccc1Nc1c(Cl)cccc1Cl", "=", 20),
    ("CC=CC=CC(=O)OC(C)OC(=O)Cc1c(C)n(C(=O)c2ccc(Cl)cc2)c2ccc(OC)cc12 (stereo not shown)", ">", 20),
    ("CC(=O)OC(C)OC(=O)Cc1ccccc1Nc1c(Cl)cccc1Cl (stereo not shown)", "=", 20),
]

---

tested on: ultraviolet erythema; assay: inhibition action for ultraviolet erythema; assay type: in vivo, male Hartley guinea pigs; set-up: scale not given here; conditions: 3 mg/kg orally, 3 hs after irradiation, guinea pigs
3 hs after the irradiation, Average ± standard error: recorded values
testReadout: 3 hs after the irradiation, Average ± standard error

# molecule, val
records = [
    ("COc1ccc2c(c1)c(CC(=O)OCCOC(C)=O)c(C)n2C(=O)c1ccc(Cl)cc1 [Compound 3]", 2.5),
    ("COc1ccc2c(c1)c(CC(=O)O)c(C)n2C(=O)c1ccc(Cl)cc1 [IM, indomethacin, reference compound]", 2.5),
    ("COc1ccc2c(c1)c(CC(=O)OCOC(=O)C=C(C)C)c(C)n2C(=O)c1ccc(Cl)cc1 [Compound 2]", 1.83),
    ("CC=CC=CC(=O)OC(C)OC(=O)Cc1ccccc1Nc1c(Cl)cccc1Cl (stereo not shown) [Compound 21]", 3.00),
    ("C/C=C/C(=O)OCOC(=O)Cc1c(C)n(C(=O)c2ccc(Cl)cc2)c2ccc(OC)cc12 [Compound 1]", 2.08),
    ("O=C(O)Cc1ccccc1Nc1c(Cl)cccc1Cl [DF, diclofenac, reference compound]", 2.17),
    ("CC=CC=CC(=O)OCOC(=O)Cc1ccccc1Nc1c(Cl)cccc1Cl [Compound 15]", 2.0),
]

---

2 hs after the irradiation, Average ± standard error: recorded values
test system: ultraviolet erythema; experiment: inhibition action for ultraviolet erythema; format: in vivo, male Hartley guinea pigs; settings: 10 mg/kg orally, 2 hs after irradiation, guinea pigs
testReadout: 2 hs after the irradiation, Average ± standard error

# molecule, val
rows = [
    ("COc1ccc2c(c1)c(CC(=O)O)c(C)n2C(=O)c1ccc(Cl)cc1 [IM, indomethacin, reference compound]", "1.33 ± 0.217"),
    ("COc1ccc2c(c1)c(CC(=O)OCOC(=O)C=C(C)C)c(C)n2C(=O)c1ccc(Cl)cc1 [Compound 2]", "0.83 ± 0.241"),
    ("CC=CC=CC(=O)OCOC(=O)Cc1ccccc1Nc1c(Cl)cccc1Cl [Compound 15]", "0.67 ± 0.211"),
]

---

assay: Gastrointestinal ulcer formation action (gastric ulceration); conditions: rat, in vivo, po

# compound, TD50 at 6 h
measured = [
    ("COc1ccc2c(c1)c(CC(=O)O)c(C)n2C(=O)c1ccc(Cl)cc1 [IM, indomethacin, reference compound]", "8 mg/kg"),
    ("COc1ccc2c(c1)c(CC(=O)OCC(=O)O)c(C)n2C(=O)c1ccc(Cl)cc1 [Acemethacin, acemethacin, reference compound]", "17.5 mg/kg"),
]
